// data source = BindingDB's records for doi:10.1016/s0968-0896(99)00127-3

target under test: Dimer of Gag-Pol polyprotein [489-587] (Human immunodeficiency virus 1, UniProt P12497)
Construct: 489-587
procedure details: Protease Inhibition Assay
Protocol: The inhibitory activities of the compounds toward HIV-1 PR were determined by sodium dodecyl sulfate-polyacrylamide gel electrophoresis (SDS-PAGE) assay. The IC50 values of active compounds were determined using the partially purified protease and the synthetic substrate Ac-Ser-Gln-AsnTyr-Pro-Ile-Val-NH2.
Reported IC50 values are given for each entry in this list.
Form entry: value (nM) — number only.

Problem: Quick check: IC50 of Cc1cccc(C[C@H](NC(=O)c2ccc(C)c(O)c2C)[C@H](O)C(=O)N2C[C@@H](Cl)C[C@H]2C(=O)NC(C)(C)C)c1 ?
Result: 2.5

Problem: Quick check: IC50 of Cc1cc(O)c(C)c(C(=O)N[C@@H](Cc2ccc3sccc3c2)[C@H](O)C(=O)N2C[C@@H](Cl)C[C@H]2C(=O)NC(C)(C)C)c1 ?
Result: 1.5

Problem: Quick check: IC50 of Cc1ccc(O)c(C)c1C(=O)N[C@@H](Cc1cccc(C(F)(F)F)c1)[C@H](O)C(=O)N1C[C@@H](Cl)C[C@H]1C(=O)NC(C)(C)C ?
Result: 4.6

Now for the compound whose IC50 we want.
Problem: Quick check: IC50 of Cc1ccc(O)c(C)c1C(=O)N[C@@H](Cc1ccc2ccccc2c1)[C@H](O)C(=O)N1C[C@@H](Cl)C[C@H]1C(=O)NC(C)(C)C ?
Result: 2.8
